This section presents molecules with their documented EC50 values.
- System: KB
- Procedure Text: Cytotoxicity against human KB cells
- Type: functional
- Recorded Conditions: read-out: ED50 (the source's name)

1. COc1cc(/C=C/C(=O)O[C@H]2C[C@H]3C[C@H](OC(=O)/C=C/c4cc(OC)c(OC)c(OC)c4)[C@@H](C2)N3C)cc(OC)c1OC    2.2 µg/mL
2. COc1cc(C(=O)O[C@H]2C[C@H]3CC[C@@H](C2)N3C)cc(OC)c1OC    > 20 µg/mL
3. COc1cc(/C=C/C(=O)O[C@H]2C[C@@H]3C[C@H](OC(=O)Cc4ccccc4)C[C@H]2N3C)cc(OC)c1OC    > 20 µg/mL
4. COc1cc(/C=C/C(=O)O[C@H]2C[C@@H]3C[C@H](OC(=O)Cc4cccc(O)c4)C[C@H]2N3C)cc(OC)c1OC    14.7 µg/mL
5. COc1cc(/C=C/C(=O)O[C@H]2[C@@H](O)[C@@H]3C[C@H](OC(=O)c4cc(OC)c(OC)c(OC)c4)C[C@H]2[N+]3(C)[O-])cc(OC)c1OC (some centres undefined)    > 20 µg/mL
6. COc1cc(/C=C/C(=O)O[C@H]2C[C@@H]3C[C@H](OC(=O)c4cc(OC)c(OC)c(OC)c4)C[C@H]2N3C)cc(OC)c1OC    > 20 µg/mL
7. COc1cc(/C=C/C(=O)O[C@H]2[C@@H](O)[C@@H]3C[C@H](OC(=O)c4cc(OC)c(OC)c(OC)c4)C[C@H]2N3C)cc(OC)c1OC    > 20 µg/mL
8. CN1C2C[C@@H](OC(=O)Cc3ccccc3)CC1[C@H](O)[C@@H]2O    > 20 µg/mL

Let us examine a further case.
Fill in: EC50 on KB, entry `COc1cc(/C=C/C(=O)O[C@@H]2C[C@@H]3[C@@H](OC(=O)/C=C/c4cc(OC)c(OC)c(OC)c4)[C@@H](O)[C@H](C2)N3C)cc(OC)c1OC` 11 µg/mL

###

- Procedure Text: Cytotoxicity against human multidrug-resistant KBV1 cells in presence of vinblastin
- Type: functional
- Recorded Conditions: KB-V1, read-out: ED50 (the source's name)
Quantity: EC50

1. COc1cc(C(=O)O[C@H]2C[C@H]3CC[C@@H](C2)N3C)cc(OC)c1OC    > 20 µg/mL
2. COc1cc(/C=C/C(=O)O[C@H]2[C@@H](O)[C@@H]3C[C@H](OC(=O)c4cc(OC)c(OC)c(OC)c4)C[C@H]2[N+]3(C)[O-])cc(OC)c1OC (stereo partly drawn)    > 20 µg/mL

Let us examine a further case.
Give EC50 for the following compound: `CN1C2C[C@@H](OC(=O)Cc3ccccc3)CC1[C@H](O)[C@@H]2O` > 20 µg/mL
